Known EC50 of a selection of compounds
Target: human RORgT (Homo sapiens, UniProt P51449)
Sequence (P51449 267-516): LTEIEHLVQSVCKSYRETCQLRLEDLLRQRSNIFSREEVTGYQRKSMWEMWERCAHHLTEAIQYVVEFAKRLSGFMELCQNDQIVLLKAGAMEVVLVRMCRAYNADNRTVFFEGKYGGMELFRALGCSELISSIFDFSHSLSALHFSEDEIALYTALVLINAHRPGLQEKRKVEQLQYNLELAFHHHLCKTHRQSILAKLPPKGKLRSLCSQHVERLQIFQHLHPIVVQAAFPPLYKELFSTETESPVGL
Experiment: RORgT Gal4 Luciferase Reporter Gene Assay
Details: engineered Jurkat cells overexpressing RORgT (LBD or full length) fused with Gal4 Luc reporter; 18 hours at 37° C.; luminescence
Report the figure in nM without appending any unit label.

Reference set (3 entries):
{"COMPOUND": "O=C(O)[C@H]1CC[C@H](C(=O)N2CC[C@@]3(S(=O)(=O)c4ccc(F)cc4)c4ccc(OCc5ccccc5)cc4CC[C@@H]23)CC1", "EC50 (nM)": 18}
{"COMPOUND": "CN1CC(C(=O)N2CC[C@@]3(S(=O)(=O)c4ccccc4)c4ccc(OCc5c(Cl)cccc5Cl)cc4CC[C@@H]23)CC1=O (stereo partly drawn)", "EC50 (nM)": 19}
{"COMPOUND": "C[C@]1(C(=O)O)CC[C@H](C(=O)N2CC[C@@]3(S(=O)(=O)c4ccc(F)cc4)c4ccc(OCc5c(F)cccc5C(F)(F)F)cc4CC[C@@H]23)CC1", "EC50 (nM)": 20}

Quick one: EC50 of O=C(N1CCOCC1)N1CC[C@@]2(S(=O)(=O)c3ccccc3)c3ccc(OCc4c(Cl)cccc4Cl)cc3CC[C@@H]12 ?
102

Would you kindly share the measured EC50 for O=C(O)[C@H]1CC[C@H](C(=O)N2CC[C@@]3(S(=O)(=O)c4ccc(F)cc4)c4ccc(OCc5cc(F)ccc5Cl)cc4CC[C@@H]23)CC1 ?
9.5

Requested read-out: EC50. Entry: O=C(O)[C@H]1CC[C@H](C(=O)N2CC[C@@]3(S(=O)(=O)c4ccc(F)cc4)c4ccc(CCc5c(Cl)cccc5Cl)cc4CC[C@@H]23)CC1 [Example 159]
1.1

Suppose we examine the compound O=C(C1CCS(=O)(=O)CC1)N1CC[C@@]2(S(=O)(=O)c3ccc(F)cc3)c3ccc(OCc4c(F)cccc4Cl)cc3CC[C@@H]12 ; what EC50 value has been reported?
7.8

Fill in: EC50 of O=C(CN1CCS(=O)(=O)CC1)N1CC[C@@]2(S(=O)(=O)c3ccccc3)c3ccc(OCc4c(F)cccc4Cl)cc3CC[C@@H]12 is ___
14

Can you look up the measured EC50 of O=C(O)[C@H]1CC[C@H](C(=O)N2CC[C@@]3(S(=O)(=O)c4ccc(F)cc4)c4ccc(Cc5ccc(F)cc5)cc4CC[C@@H]23)CC1 for me?
5.2

Give the measured EC50 of O=C(C1CCC(B(O)O)CC1)N1CC[C@@]2(S(=O)(=O)c3ccc(F)cc3)c3ccc(OCc4c(F)cccc4C(F)(F)F)cc3CC[C@@H]12 (stereo partly drawn) [Example 14] .
1.8

Fill in: EC50 of N#CCCN1C(=O)CC[C@H]1C(=O)N1CC[C@@]2(S(=O)(=O)c3ccc(F)cc3)c3ccc(OCc4cc(F)c(F)cc4Cl)cc3CC[C@@H]12 is ___
12

Values compiled from patent US20230295087A1.
